System: NCI-H226 lung
assay_remarks: NCI tumour cell line growth inhibition, 384-well format; in the data active = GI50 below about 0.43 µM; inactive = the rest
Hi there, use one of these labels in your reply, thanks! true (1) = active, false (0) = inactive

smiles_string	target	class
COc1nnc2ccc(N3CCC(c4ccc(OCCN5CCN(C)C(=O)[C@H]5C)cc4)CC3)nn12	NCI-H226 lung	true (1)
COc1ccc2c(OCc3nnc4ccc(-c5ccccc5)nn34)ccnc2c1	NCI-H226 lung	false (0)
Cn1ncc(Cl)c1-c1cc(C(=O)N[C@H](CN)Cc2ccc(F)c(F)c2)oc1Cl	NCI-H226 lung	false (0)

Returns: the outcome recorded for `CO[C@H]1C[C@@H]2CC[C@@H](C)[C@@](O)(O2)C(=O)C(=O)N2CCCC[C@H]2C(=O)O[C@H]([C@H](C)C[C@@H]2CC[C@@H](OCCO)[C@H](OC)C2)CC(=O)[C@H](C)C=C(C)[C@@H](O)[C@@H](OC)C(=O)[C@H](C)C[C@H](C)/C=C/C=C/C=C1C` in this assay.
false (0)

====

Tested on: HL-60(TB) leukemia
assay_remarks: NCI tumour cell line growth inhibition, 384-well format; in the data active = GI50 below about 0.43 µM; inactive = the rest
Respond using exactly one of the listed classes: YES = active, NO = inactive

compound	class
CO[C@H]1C[C@@H]2CC[C@@H](C)[C@@](O)(O2)C(=O)C(=O)N2CCCC[C@H]2C(=O)O[C@H]([C@H](C)C[C@@H]2CC[C@@H](OCCO)[C@H](OC)C2)CC(=O)[C@H](C)C=C(C)[C@@H](O)[C@@H](OC)C(=O)[C@H](C)C[C@H](C)/C=C/C=C/C=C1C	NO
O=C1Cc2cc(C(=O)NC3C[C@H]4CC[C@@H](C3)N4S(=O)(=O)CC3CCN(CCCC(F)(F)F)CC3)c(Cl)cc2N1 (some centres undefined)	NO
COc1ccc2c(OCc3nnc4ccc(-c5ccccc5)nn34)ccnc2c1	NO

Could you kindly confirm the outcome this assay logged for `COc1nnc2ccc(N3CCC(c4ccc(OCCN5CCN(C)C(=O)[C@H]5C)cc4)CC3)nn12` ?
YES

====

Tested on: HT29 colon
assay_remarks: NCI tumour cell line growth inhibition, 384-well format; in the data active means GI50 below about 0.43 µM; inactive means the rest
Give your call using only these classes: active, inactive

Solved entries:
molecule	class
CO[C@H]1C[C@@H]2CC[C@@H](C)[C@@](O)(O2)C(=O)C(=O)N2CCCC[C@H]2C(=O)O[C@H]([C@H](C)C[C@@H]2CC[C@@H](OCCO)[C@H](OC)C2)CC(=O)[C@H](C)C=C(C)[C@@H](O)[C@@H](OC)C(=O)[C@H](C)C[C@H](C)/C=C/C=C/C=C1C	inactive
COc1ccc2c(OCc3nnc4ccc(-c5ccccc5)nn34)ccnc2c1	inactive
COc1nnc2ccc(N3CCC(c4ccc(OCCN5CCN(C)C(=O)[C@H]5C)cc4)CC3)nn12	active

Turning to the following molecule.
# outcome recorded in this test, key = O=C1Cc2cc(C(=O)NC3C[C@H]4CC[C@@H](C3)N4S(=O)(=O)CC3CCN(CCCC(F)(F)F)CC3)c(Cl)cc2N1 (some centres undefined)
inactive

====

Tested on: UACC-62 melanoma
assay_remarks: NCI tumour cell line growth inhibition, 384-well format
Some compounds, each annotated with its measured TGI.

Worked cases, TGI given:
compound	TGI
CO[C@H]1C[C@@H]2CC[C@@H](C)[C@@](O)(O2)C(=O)C(=O)N2CCCC[C@H]2C(=O)O[C@H]([C@H](C)C[C@@H]2CC[C@@H](OCCO)[C@H](OC)C2)CC(=O)[C@H](C)C=C(C)[C@@H](O)[C@@H](OC)C(=O)[C@H](C)C[C@H](C)/C=C/C=C/C=C1C	14.9 µM
O=C1Cc2cc(C(=O)NC3C[C@H]4CC[C@@H](C3)N4S(=O)(=O)CC3CCN(CCCC(F)(F)F)CC3)c(Cl)cc2N1 (some centres undefined)	> 100 µM
COc1ccc2c(OCc3nnc4ccc(-c5ccccc5)nn34)ccnc2c1	> 100 µM

Need TGI of `COc1nnc2ccc(N3CCC(c4ccc(OCCN5CCN(C)C(=O)[C@H]5C)cc4)CC3)nn12` , thanks.
0.0964 µM

====

Test system: SNB-19 CNS
assay_remarks: NCI tumour cell line growth inhibition, 384-well format
quantity_measured: GI50

compound	GI50
CO[C@H]1C[C@@H]2CC[C@@H](C)[C@@](O)(O2)C(=O)C(=O)N2CCCC[C@H]2C(=O)O[C@H]([C@H](C)C[C@@H]2CC[C@@H](OCCO)[C@H](OC)C2)CC(=O)[C@H](C)C=C(C)[C@@H](O)[C@@H](OC)C(=O)[C@H](C)C[C@H](C)/C=C/C=C/C=C1C	12800 nM
O=C1Cc2cc(C(=O)NC3C[C@H]4CC[C@@H](C3)N4S(=O)(=O)CC3CCN(CCCC(F)(F)F)CC3)c(Cl)cc2N1 (some centres undefined)	> 49800 nM
Cn1ncc(Cl)c1-c1cc(C(=O)N[C@H](CN)Cc2ccc(F)c(F)c2)oc1Cl	1480 nM

Now consider the entry below.
Please provide the recorded GI50 for `COc1nnc2ccc(N3CCC(c4ccc(OCCN5CCN(C)C(=O)[C@H]5C)cc4)CC3)nn12` , tested on SNB-19 CNS.
311 nM
